- PROCEDURE_TEXT: human hepatoma cell viability loss – ATP luminescence, cytotoxicity control for P. falciparum antimalarial project, primary screen (AID 2303);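 further: 0% = DMSO wells and 100% = digitonin-killed cells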
- CONDITION_NOTES: HepG2 viability, 24-48 h, at 10 µM
Calls of active or inactive are those of the source.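 How the source made its calls: active means inhibition above 50%; inactive means the rest.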
// classify into label 1 for active, label 0 for inactive

A selection of reference data follows.
MOLECULE	DISCRETE_LABEL
CS(=O)(=O)c1ccc(CNCc2cccc(-c3ccc(-c4nc5ccc(C(F)(F)F)cc5[nH]4)cc3)c2)cc1	label 0
CCCN(CCC)C(=O)c1cc(C(=O)N[C@@H](Cc2ccccc2)[C@H](O)CNCc2cccc(OC)c2)cc(N2CCCCS2(=O)=O)c1	label 0
CCOc1cc(C(=O)Nc2ccc3nc(N(CC)CC)cc(C)c3c2)cc(OCC)c1OCC	label 0

Hey, what did the test say about "COc1cc(NCCCNCC2c3ccccc3Oc3ccccc32)nc2ccccc12" ?
label 1

Hey, what did the test say about "O=C(Nc1ccc(Cl)cc1)c1cccc2[nH]c(C(F)(F)F)nc12" ?
label 1

Hey, what did the test say about "NC(N)=Nc1ccc(C(=O)O)c(O)c1" ?
label 0

Hey, what did the test say about "CCNCc1ccc(-c2cc3ncnc(Nc4ccc(OCc5cccc(F)c5)c(Cl)c4)c3s2)[nH]1" ?
label 0

Hey, what did the test say about "O=C(Nc1ccc(CN2CCN(S(=O)(=O)c3cccc(Cl)c3)CC2)cc1)c1cccs1" ?
label 0

Hey, what did the test say about "O=C(Nc1ccc(CCNC2=NCCN2)cc1)Nc1ccc(CCNC2=NCCN2)cc1" ?
label 0

###

- TEST_SYSTEM: Protein kinase 7 (PK7), Plasmodium falciparum 3D7 (PF3D7_0213400) (UniProt Q7YTF7)
- PROCEDURE_TEXT: inhibition of Plasmodium PK7 catalytic activity – biochemical, TCAMS antimalarial set, Kinase-Glo luminescence (AID 1159587)
- CONDITION_NOTES: recombinant PfPK7, Kinase-Glo ATP depletion luminescence
Calls of active or inactive are those of the source. How the calls were made is not given here.
QUANTITY_MEASURED: outcome

MOL	TEST_SYSTEM	outcome
C[C@H](NC(=O)c1c(CN2CCC(N3CCCCC3)CC2)c(-c2ccccc2)nc2cc(O)ccc12)C1CCCCC1	Protein kinase 7 (PK7), Plasmodium falciparum 3D7 (PF3D7_0213400) (UniProt Q7YTF7)	inactive
CCc1sc(N2CCC(C)CC2)nc1C(=O)Nc1ccc(F)cc1C(F)(F)F	Protein kinase 7 (PK7), Plasmodium falciparum 3D7 (PF3D7_0213400) (UniProt Q7YTF7)	inactive
CCOCCCNc1sc(S(=O)(=O)c2ccccc2)nc1S(=O)(=O)c1ccc(C)cc1	Protein kinase 7 (PK7), Plasmodium falciparum 3D7 (PF3D7_0213400) (UniProt Q7YTF7)	inactive
COc1cc(Nc2ccnc3ccc(C(F)(F)F)cc23)cc(OC)c1OC	Protein kinase 7 (PK7), Plasmodium falciparum 3D7 (PF3D7_0213400) (UniProt Q7YTF7)	inactive

Proceeding to the next compound to report its outcome.
Query outcome for "Clc1ccc(OCCC2CCN(CCCCCCN3CCCCC3)CC2)cc1Cl"
inactive

###

- TEST_SYSTEM: L-lactate dehydrogenase (Plasmodium falciparum (isolate CDC / Honduras))
- PROCEDURE_TEXT: PfLDH activity inhibition – cell lysate, 3D7 strain, counter-screen for P. falciparum growth inhibition project (AID 2304);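 further: 0% = vehicle and 100% = reference inhibitor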
- CONDITION_NOTES: P. falciparum 3D7 crude extract, LDH APAD/NBT absorbance; at 2 µM; stronger effect = higher value
inhibition: recorded values
Lab book: enter the figure in %, no units written.

Past entries and their recorded results:
MOLECULE	inhibition / %
O=C(Nc1ccc([N+](=O)[O-])cc1)Nc1cc(C(F)(F)F)ccc1F	-4
CC(C)COc1cc(C(=O)Nc2cnc3ccccc3c2)ccc1[N+](=O)[O-]	-1
O=[N+]([O-])c1cccc(Nc2nccc(-c3cnn4ncccc34)n2)c1	-1
NCc1ccc(CNCc2cccc(-c3cccc(-c4nc5ccccc5[nH]4)c3)c2)cc1	-7

Give inhibition for "O=C(Nc1ccc(F)c(C(F)(F)F)c1)N[C@H]1CCN(CCCCCNC(=O)[C@@H]2C[C@H]2c2ccc(Cl)c(Cl)c2)C1" tested on L-lactate dehydrogenase (Plasmodium falciparum (isolate CDC / Honduras)).
7

Give inhibition for "CCn1c(C(C)C)cc2c3c(N)nc(N)nc3ccc21" tested on L-lactate dehydrogenase (Plasmodium falciparum (isolate CDC / Honduras)).
2

Give inhibition for CC1(C)CN(CCC2CCC(NC(=O)/C=C/c3ccccc3F)CC2)Cc2ccc(C#N)cc21 (stereo not given) tested on L-lactate dehydrogenase (Plasmodium falciparum (isolate CDC / Honduras)).
-3

Give inhibition for COc1ccc(C2CC(=O)C3=C(C2)NC(C)=C(C(=O)OC(C)C)C3c2ccc(O)cc2)cc1OC (stereo not given) tested on L-lactate dehydrogenase (Plasmodium falciparum (isolate CDC / Honduras)).
-3

Give inhibition for "O=C(Nc1ccc2nc(-c3ccccc3)[nH]c2c1)c1cc(-c2ccc3c(c2)OCCO3)n[nH]1" tested on L-lactate dehydrogenase (Plasmodium falciparum (isolate CDC / Honduras)).
-2

Give inhibition for CCOC(=O)C(CO)NC(=O)c1ccc([N+](=O)[O-])o1 (stereo not given) tested on L-lactate dehydrogenase (Plasmodium falciparum (isolate CDC / Honduras)).
8

Give inhibition for CN(C)CC(O)C(c1ccccc1)c1cccc(Br)c1 (stereo not given) tested on L-lactate dehydrogenase (Plasmodium falciparum (isolate CDC / Honduras)).
-8

Give inhibition for "O=c1cc(NCCCNCc2scc3c(Cl)cc(C(F)(F)F)nc23)[nH]c2ccccc12" tested on L-lactate dehydrogenase (Plasmodium falciparum (isolate CDC / Honduras)).
-1

Give inhibition for N#Cc1ccc2c(c1)CCN(CCC1CCC(Nc3ncnc4ccccc34)CC1)C2 (stereo not given) tested on L-lactate dehydrogenase (Plasmodium falciparum (isolate CDC / Honduras)).
-4

Give inhibition for O=C(NCc1cccnc1)C(c1cc2ccccc2o1)N1CCN(C(c2ccccc2)c2ccccc2)CC1 (stereo not given) tested on L-lactate dehydrogenase (Plasmodium falciparum (isolate CDC / Honduras)).
6

Give inhibition for "NC(=O)c1cccc(Nc2nccc(Nc3ccc(Oc4ccc5ccccc5c4)cc3)n2)c1" tested on L-lactate dehydrogenase (Plasmodium falciparum (isolate CDC / Honduras)).
5

Give inhibition for "CCCCCCN1CCC(NCc2cccc(C#N)c2)CC1" tested on L-lactate dehydrogenase (Plasmodium falciparum (isolate CDC / Honduras)).
-1

Give inhibition for "COc1cccc(Cc2c(C)nc3nc(N)nc(N)c3c2C)c1" tested on L-lactate dehydrogenase (Plasmodium falciparum (isolate CDC / Honduras)).
-2

Give inhibition for "CN(C)C(=NCCCCCCN=C(/N=C(/N)Nc1ccc(Cl)cc1)N(C)C)/N=C(/N)Nc1ccc(Cl)cc1" tested on L-lactate dehydrogenase (Plasmodium falciparum (isolate CDC / Honduras)).
4

Give inhibition for "Oc1cccc(Nc2ccnc3cc(-c4ccccn4)ccc23)c1" tested on L-lactate dehydrogenase (Plasmodium falciparum (isolate CDC / Honduras)).
-3

Give inhibition for "CC(C)CN1C(=O)c2ccc(C(=O)Nc3nccs3)cc2C1=O" tested on L-lactate dehydrogenase (Plasmodium falciparum (isolate CDC / Honduras)).
1

Give inhibition for "O=C(NCCCCN1CCC(c2ccc([N+](=O)[O-])cc2)CC1)c1ccc(NC(=O)c2ccc(Cl)cc2)cc1" tested on L-lactate dehydrogenase (Plasmodium falciparum (isolate CDC / Honduras)).
2

Give inhibition for "O=C(CCCc1ccccc1)Nc1cccc(N2CCC(N3CCN(c4ccccc4O)CC3)CC2)c1" tested on L-lactate dehydrogenase (Plasmodium falciparum (isolate CDC / Honduras)).
-1

Give inhibition for CC(C)c1ccc(CN2CCC(CNC(=O)c3cc(-c4cccc(Cl)c4)cs3)C2)cc1 (stereo not given) tested on L-lactate dehydrogenase (Plasmodium falciparum (isolate CDC / Honduras)).
1
